measurement_description: log P determination by HPLC on reversed-phase column (C 18), EEC Directive 79/831 V.A8
Type: physicochemical
measurement_context: reversed-phase HPLC column (C 18), mobile-phase label not given; read-out: Log P (preparation examples)
attribute_measured: chromatographic logP

compound_string=CCOC(=O)c1ccc(S(C)(=O)=O)c(OCCn2nc(C)n(C)c2=O)c1C reported_measurement=1.76
compound_string=CCOc1nn(COc2c(Cl)ccc(C(=O)O)c2Cl)c(=O)n1C reported_measurement=1.74
compound_string=CCOC(=O)c1ccc(Cl)c(OCn2nc(OCC)n(C)c2=O)c1Cl reported_measurement=2.77
compound_string=CCn1ncc(C(=O)c2ccc(S(C)(=O)=O)c(OCCn3nc(C)n(C)c3=O)c2C)c1O reported_measurement=1.23
compound_string=Cc1c(C(=O)O)ccc(Cl)c1OCCn1nc(C)n(C)c1=O reported_measurement=1.37

1. Cc1nn(CCOc2c(Cl)ccc(C(=O)Cl)c2Cl)c(=O)n1C
2. COC(=O)c1ccc(Cl)c(OCCCl)c1C
Query: Select the item whose chromatographic logP value is smaller, choosing between 1 and 2 . Write down the label of the entry you select.
Result: 1
(1: 1.24, 2: 3.52)

---

measurement_description: log P determination by HPLC on reversed-phase column (C 18), EEC Directive 79/831 V.A8
Type: physicochemical
measurement_context: reversed-phase HPLC column (C 18), mobile-phase label not given; read-out: Log P (preparation examples)
attribute_measured: chromatographic logP

compound_string=CCOc1nn(COc2c(Cl)ccc(C(=O)C3C(=O)CCCC3=O)c2Cl)c(=O)n1C attribute_measured="chromatographic logP" reported_measurement=2.52
compound_string=COC(=O)c1ccc(Cl)c(O)c1C attribute_measured="chromatographic logP" reported_measurement=2.14
compound_string=COC(=O)c1ccc(Cl)c(OCCn2nc(C)n(C)c2=O)c1C attribute_measured="chromatographic logP" reported_measurement=1.94
compound_string=COC(=O)c1ccc(SC)c(OCCn2nc(C)n(C)c2=O)c1C attribute_measured="chromatographic logP" reported_measurement=1.89
